tested on: S. aureus ATCC 25923; test: Checkerboard broth dilution synergy assay; assay type: cell-based; conditions: combination with linezolid
METRIC NAME: interaction in combination

| MOLECULE | RESULT |
| --- | --- |
| O=C(NNC(=S)Nc1ccc(Cl)cc1)c1ccccc1F [compound 6] | synergistic |
| Cc1cccc(C(=O)NC(=S)NNC(=O)c2cccc(Cl)c2Cl)c1 [compound 2] | synergistic |
| O=C(NC(=S)NNC(=O)c1cccc(Cl)c1Cl)c1ccccc1Cl [compound 3] | additively |
| O=C(NC(=S)NNC(=O)c1cccc(Cl)c1Cl)c1ccc(Cl)cc1 [compound 4] | additive |
| O=C(NNC(=S)Nc1cccc(C(F)(F)F)c1)c1ccccc1F [compound 8] | additively |

Qu. Which interaction in combination reading was recorded for the molecule O=C(NNC(=S)Nc1cccc(Br)c1)c1ccccc1F [compound 9] ?
Ans. additively

Qu. Given the molecule Cc1ccccc1C(=O)NC(=S)NNC(=O)c1cccc(Cl)c1Cl [compound 1] , what is its reported interaction in combination?
Ans. additive

---

test system: MSSA-4; test: MIC, clinical isolate of S. aureus; type: cell-based; conditions: Staphylococcus aureus; clinical isolate MSSA-4; read-out: MIC
Text: […]
Would you mind telling me the reported MIC of each entry?
Please respond with the number in µg/mL and leave the unit unwritten.

Qu. Which MIC value is on record for "O=C(NNC(=S)Nc1cccc(Br)c1)c1ccccc1F" ?
Ans. 125

Qu. Recorded MIC for CNC(C)C1CCC(N)C(OC2C(N)CC(N)C(OC3OCC(C)(O)C(NC)C3O)C2O)O1 (stereo not drawn) [GN, gentamicin, reference compound] , please?
Ans. 1.95

Qu. For the molecule "O=C(NNC(=S)Nc1ccc(Cl)cc1)c1ccccc1F" , what MIC is on record?
Ans. 125

Qu. What value of MIC has been reported for the following molecule? "O=C(NC(=S)NNC(=O)c1cccc(Cl)c1Cl)c1ccccc1Cl"
Ans. 250

Qu. # MIC lookup, item "O=C(NC(=S)NNC(=O)c1cccc(Cl)c1Cl)c1ccc(Cl)cc1"
Ans. 500

Qu. # input molecule: C[C@H]1COc2c(N3CCN(C)CC3)c(F)cc3c(=O)c(C(=O)O)cn1c23 [LEV, levofloxacin, reference compound] ; wanted: its MIC
Ans. 0.12

Qu. MIC lookup needed for "Cc1cccc(C(=O)NC(=S)NNC(=O)c2cccc(Cl)c2Cl)c1" , thanks.
Ans. 500

Qu. Report MIC for CC(=O)NC[C@H]1CN(c2ccc(N3CCOCC3)c(F)c2)C(=O)O1 [LZD, linezolid, reference compound] please.
Ans. 1.95

---

test system: MRSA-1; experiment: MIC, clinical isolate of S. aureus; type: cell-based; details: Staphylococcus aureus; clinical isolate MRSA-1; read-out: MIC
Source text: […]
Friendly reminder: MIC below 100 µg/mL is condition met, at or above is condition not met.

Qu. Consider "O=C(NNC(=S)Nc1cccc(C(F)(F)F)c1)c1ccccc1F" . Does its MIC lie strictly below 100 µg/mL?
Ans. condition not met

Qu. Determine if CC1(C)S[C@@H]2[C@H](NC(=O)[C@H](N)c3ccc(O)cc3)C(=O)N2[C@H]1C(=O)O [AMX, amoxicillin, reference compound] shows MIC strictly lower than 100 µg/mL.
Ans. condition met

Qu. Determine whether this molecule shows MIC lower than 100 µg/mL (ties excluded): "O=C(NNC(=S)Nc1cccc(Cl)c1)c1ccccc1F"
Ans. condition not met

Qu. Input "O=C(NC(=S)NNC(=O)c1cccc(Cl)c1Cl)c1ccc(Cl)cc1" ; condition: MIC strictly below 100 µg/mL. Does it hold?
Ans. condition not met

Qu. # check: MIC < 100 µg/mL for "O=C(NNC(=S)Nc1ccc(Cl)cc1)c1ccccc1F"
Ans. condition not met

Qu. Lab note: MIC threshold 100 µg/mL. Does this molecule come in strictly under it? "Cc1ccccc1C(=O)NC(=S)NNC(=O)c1cccc(Cl)c1Cl"
Ans. condition not met

Qu. I'd appreciate it if you could check whether "O=C(NC(=S)NNC(=O)c1cccc(Cl)c1Cl)c1ccc([N+](=O)[O-])cc1" has MIC smaller than 100 µg/mL.
Ans. condition not met

Qu. Does the reported MIC of the following molecule sit strictly below 100 µg/mL? CC(=O)NC[C@H]1CN(c2ccc(N3CCOCC3)c(F)c2)C(=O)O1 [LZD, linezolid, reference compound]
Ans. condition met

Qu. In plain terms, does "Cc1cccc(C(=O)NC(=S)NNC(=O)c2cccc(Cl)c2Cl)c1" come in under 100 µg/mL for MIC?
Ans. condition not met

Qu. # strict comparison: is reported MIC < 100 µg/mL? input = "O=C(NNC(=S)Nc1cccc(Br)c1)c1ccccc1F"
Ans. condition not met

Qu. Hello, I'm reviewing records and need to know if MIC of CNC(C)C1CCC(N)C(OC2C(N)CC(N)C(OC3OCC(C)(O)C(NC)C3O)C2O)O1 (stereo not shown) [GN, gentamicin, reference compound] is below 100 µg/mL. Could you check?
Ans. condition met

Qu. Field: below-cutoff. Rule: recorded MIC strictly less than 100 µg/mL. Subject: "O=C(NC(=S)NNC(=O)c1cccc(Cl)c1Cl)c1ccccc1Cl"
Ans. condition not met

Qu. Check if MIC falls below 100 µg/mL for C[C@H]1COc2c(N3CCN(C)CC3)c(F)cc3c(=O)c(C(=O)O)cn1c23 [LEV, levofloxacin, reference compound] .
Ans. condition met
